Target desc: 5-LOX enzyme
Protocol: 5-LOX activity (5-lipoxygenase inhibition, linoleic acid substrate, absorbance 234 nm)
Assay setup: read-out: IC50 ± SEM 5-LOX; listed as C00005
Observable: pIC50
Notebook: values listed as pIC50 are -log10 of the concentration (mol/L).

q: Name the recorded pIC50 for Clc1csc(-c2nc(NCc3ccccc3)sc2Nc2ccccc2)c1 .
a: 4.42

* * *

Target desc: 5-LOX enzyme
Protocol: 5-LOX activity (5-lipoxygenase inhibition, linoleic acid substrate, absorbance 234 nm)
Assay setup: read-out: IC50 ± SEM 5-LOX
Observable: IC50

Nc1nc(-c2cc(Cl)cs2)c(N2CCNCC2)s1	93.2 µM
CCNc1nc(-c2cc(Cl)cs2)c(N2CCN(C)CC2)s1	72.3 µM
CCNc1nc(-c2cc(Cl)cs2)c(Nc2ccccc2)s1	56.2 µM
CN1CCN(c2sc(NCc3ccccc3)nc2-c2cc(Cl)cs2)CC1	23.1 µM
C#CCNc1nc(-c2cc(Cl)cs2)c(Nc2ccccc2)s1	83.1 µM

For the next question, use this molecule.
q: Name the recorded IC50 for CCNc1nc(-c2cc(Cl)cs2)c(N2CCNCC2)s1 .
a: 98.3 µM
